Data provenance is patent US20070208085A1.

# System: NCI-H460
# experimental.protocol: NCI human cell line panel cytotoxicity
# Format: cell-based
# reported.conditions: NSCLC, read-out: IC50
pIC50: −log10 of the molar value.
measurement.kind: pIC50

smiles_notation=CN(C)CCNc1ccc(NCCN(CCCl)CCCl)c2c1C(=O)c1c(O)ccc(O)c1C2=O result="> 8.00"
